Quick reference for ΔG among some molecules
study-target: 14-3-3γ (Homo sapiens)
Construct: made in house; host or cells: E. coli NiCo21 (DE3)
Sequence (P61981 whole entry): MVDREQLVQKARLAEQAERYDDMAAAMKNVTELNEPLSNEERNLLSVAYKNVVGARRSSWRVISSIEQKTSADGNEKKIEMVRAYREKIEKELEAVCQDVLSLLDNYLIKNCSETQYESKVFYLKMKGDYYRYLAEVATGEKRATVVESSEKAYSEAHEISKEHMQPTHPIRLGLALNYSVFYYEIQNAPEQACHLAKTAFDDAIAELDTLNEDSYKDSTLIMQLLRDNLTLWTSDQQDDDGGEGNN
assay-name: Isothermal titration calorimetry (ITC) of 14-3-3 binding to peptide
experimental-conditions: Table S5; ITC, 25 °C; replicate 1
Where a SMILES comes first, the peptide text is derived from it. [ ]: non-standard residue; d: D form. ξ: configuration not given here. Phe(4-NO2) = N[C@@H](Cc1ccc([N+](=O)[O-])cc1)C(=O)O; ξAla(4-thiazolyl) = NC(Cc1cscn1)C(=O)O; pS = N[C@@H](COP(=O)(O)O)C(=O)O; β3hS = N[C@@H](CO)CC(=O)O; Nva = CCC[C@H](N)C(=O)O; βAla = NCCC(=O)O
Expressed in kcal/mol, but write only the number.

| molecule | reported-endpoint | unit-descriptor | reported-value |
| --- | --- | --- | --- |
| CCC[C@H](NC(=O)[C@H](N)CCCCN)C(=O)N[C@@H](Cc1ccc([N+](=O)[O-])cc1)C(=O)NC(Cc1cscn1)C(=O)N[C@@H](COP(=O)(O)O)C(=O)N[C@@H](Cc1ccc([N+](=O)[O-])cc1)C(=O)N[C@@H](CO)CC(=O)NCCC(=O)N[C@@H](C)C(=O)N[C@@H](CCCCN)C(N)=O (stereo partly drawn) [5c] (H-[dK][Nva][Phe(4-NO2)][ξAla(4-thiazolyl)][pS][Phe(4-NO2)][β3hS][βAla]AK-NH2; N-terminus and C-terminus assumed) | ΔG | kcal/mol | -7.4 |

Record CCC[C@H](NC(=O)[C@H](N)CCCCN)C(=O)N[C@@H](Cc1ccc([N+](=O)[O-])cc1)C(=O)NC(Cc1cscn1)C(=O)N[C@@H](COP(=O)(O)O)C(=O)N[C@@H](Cc1ccc(O)cc1)C(=O)N[C@@H](CO)CC(=O)NCCC(=O)N[C@@H](Cc1ccc([N+](=O)[O-])cc1)C(=O)N[C@@H](CCCCN)C(N)=O (stereo partly drawn) [4a] (H-[dK][Nva][Phe(4-NO2)][ξAla(4-thiazolyl)][pS]Y[β3hS][βAla][Phe(4-NO2)]K-NH2; N-terminus and C-terminus assumed) / 14-3-3γ (Homo sapiens), ΔG recorded as -9.4

Record CCC[C@H](NC(=O)[C@H](N)CCCCN)C(=O)N[C@@H](Cc1ccc([N+](=O)[O-])cc1)C(=O)NC(Cc1cscn1)C(=O)N[C@@H](COP(=O)(O)O)C(=O)N[C@@H](Cc1ccc([N+](=O)[O-])cc1)C(=O)N[C@@H](CO)CC(=O)NCCC(=O)N[C@@H](Cc1ccc(O)cc1)C(=O)N[C@@H](CCCCN)C(N)=O (stereo partly drawn) [5a] (H-[dK][Nva][Phe(4-NO2)][ξAla(4-thiazolyl)][pS][Phe(4-NO2)][β3hS][βAla]YK-NH2; N-terminus and C-terminus assumed) / 14-3-3γ (Homo sapiens), ΔG recorded as -7.9

Record CCC[C@H](NC(=O)[C@H](N)CCCCN)C(=O)N[C@@H](Cc1ccc([N+](=O)[O-])cc1)C(=O)NC(Cc1cscn1)C(=O)N[C@@H](COP(=O)(O)O)C(=O)N[C@@H](Cc1ccc([N+](=O)[O-])cc1)C(=O)N[C@@H](CO)CC(=O)NCCC(=O)N[C@@H](Cc1ccccc1)C(=O)N[C@@H](CCCCN)C(N)=O (stereo partly drawn) [5b] (H-[dK][Nva][Phe(4-NO2)][ξAla(4-thiazolyl)][pS][Phe(4-NO2)][β3hS][βAla]FK-NH2; N-terminus and C-terminus assumed) / 14-3-3γ (Homo sapiens), ΔG recorded as -7.9

Record CCC[C@H](NC(=O)[C@H](N)CCCCN)C(=O)N[C@@H](Cc1ccc([N+](=O)[O-])cc1)C(=O)NC(Cc1cscn1)C(=O)N[C@@H](COP(=O)(O)O)C(=O)N[C@@H](Cc1ccccc1)C(=O)N[C@@H](CO)CC(=O)NCCC(=O)N[C@@H](Cc1ccc([N+](=O)[O-])cc1)C(=O)N[C@@H](CCCCN)C(N)=O (stereo partly drawn) [4b] (H-[dK][Nva][Phe(4-NO2)][ξAla(4-thiazolyl)][pS]F[β3hS][βAla][Phe(4-NO2)]K-NH2; N-terminus and C-terminus assumed) / 14-3-3γ (Homo sapiens), ΔG recorded as -10.3

Cited source for all entries: paper PMC9667936
